- measured.on: terminal deoxynucleotidyl transferase (TdT) (Bos taurus)
- Sequence (P06526 whole entry): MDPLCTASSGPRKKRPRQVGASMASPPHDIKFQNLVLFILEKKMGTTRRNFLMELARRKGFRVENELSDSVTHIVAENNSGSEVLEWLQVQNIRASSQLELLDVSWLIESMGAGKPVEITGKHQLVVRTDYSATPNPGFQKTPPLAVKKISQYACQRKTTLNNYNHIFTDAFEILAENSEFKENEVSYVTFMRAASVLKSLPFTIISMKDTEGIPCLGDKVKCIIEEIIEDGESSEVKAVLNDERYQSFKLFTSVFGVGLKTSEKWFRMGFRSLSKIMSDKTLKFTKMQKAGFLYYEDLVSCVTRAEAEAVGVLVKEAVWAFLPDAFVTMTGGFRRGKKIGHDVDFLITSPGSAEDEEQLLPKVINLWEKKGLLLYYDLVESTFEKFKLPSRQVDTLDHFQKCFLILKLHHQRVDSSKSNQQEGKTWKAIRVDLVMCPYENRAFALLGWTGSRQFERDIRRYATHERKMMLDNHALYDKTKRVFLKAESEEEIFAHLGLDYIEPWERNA
- assay.procedure: Incorporation of natural and non-natural nucleotides by TdT (polymerization assay, Michaelis-Menten kinetics)
- Type: biochemical
- conditions: incorporation by TdT; 6 units TdT, 1.5 μM single-stranded DNA substrate
property.label: Vmax (nM/s)

compound: C#Cc1cn(C2CC(O)C(COP(=O)(O)OP(=O)(O)OP(=O)(O)O)O2)c2ccc([N+](=O)[O-])cc12 (stereo not shown)
measured.on: terminal deoxynucleotidyl transferase (TdT) (Bos taurus)
property.label: Vmax
units.of.measure: nM/s
meas.value: 3.2

A. Nc1ncnc2c1ncn2[C@H]1C[C@H](O)[C@@H](COP(=O)(O)OP(=O)(O)OP(=O)(O)O)O1
B. O=[N+]([O-])c1ccc2c(ccn2C2CC(O)C(COP(=O)(O)OP(=O)(O)OP(=O)(O)O)O2)c1 (stereo not shown)
C. Nc1nc2c(ncn2[C@H]2C[C@H](O)[C@@H](COP(=O)(O)OP(=O)(O)OP(=O)(O)O)O2)c(=O)[nH]1
Returns the items ordered by Vmax, from maximum to minimum. Field: ranking. Enter the labels in the order requested. C, B, A
(C: 29.2 nM/s, B: 11.5 nM/s, A: 3.3 nM/s)
